Origin of the recorded values: paper PMC10797628

Consider the following compounds; for each one, report its Ki.
- EXPERIMENTAL SYSTEM: human 5-HT1B receptor (Homo sapiens)
- Construct: host or cells: HEK293T
- Sequence (P28222 whole entry): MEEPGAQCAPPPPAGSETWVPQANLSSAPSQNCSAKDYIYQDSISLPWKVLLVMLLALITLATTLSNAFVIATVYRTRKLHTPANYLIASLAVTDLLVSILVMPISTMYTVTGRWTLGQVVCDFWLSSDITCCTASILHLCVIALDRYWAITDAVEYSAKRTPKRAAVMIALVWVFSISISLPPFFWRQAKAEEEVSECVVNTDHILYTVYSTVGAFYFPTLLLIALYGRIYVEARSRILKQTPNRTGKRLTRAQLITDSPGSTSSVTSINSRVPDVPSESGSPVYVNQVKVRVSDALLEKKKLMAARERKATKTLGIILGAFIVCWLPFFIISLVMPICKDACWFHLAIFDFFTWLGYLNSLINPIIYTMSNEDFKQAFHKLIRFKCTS
- METHOD SUMMARY: Radioligand binding (saturation and competition), WT 5-HT1B
- PARTICULARS: read-out: Affinity (pKi ± SD) 5-HT1B (converted)
Form entry: value (nM) — number only.

So for Fc1ccccc1-c1cccc2c1CC[C@@H](N1CCCC1)C2 [(R)-PFPT] , the logged Ki turned out to be 457

So for Fc1ccccc1-c1cccc2c1CC[C@H](N1CCCC1)C2 [(S)-PFPT] , the logged Ki turned out to be 12

So for CN(C)[C@H]1CCc2c(cccc2-c2cccc3c2oc2ccccc23)C1 [DBZ] , the logged Ki turned out to be 69.2

So for Fc1ccccc1-c1cccc2c1CC[C@H](N1CCNCC1)C2 [FPIP] , the logged Ki turned out to be 107

###

- EXPERIMENTAL SYSTEM: human 5-HT1D receptor (Homo sapiens)
- Construct: host or cells: HEK293T
- Sequence (P28221 whole entry): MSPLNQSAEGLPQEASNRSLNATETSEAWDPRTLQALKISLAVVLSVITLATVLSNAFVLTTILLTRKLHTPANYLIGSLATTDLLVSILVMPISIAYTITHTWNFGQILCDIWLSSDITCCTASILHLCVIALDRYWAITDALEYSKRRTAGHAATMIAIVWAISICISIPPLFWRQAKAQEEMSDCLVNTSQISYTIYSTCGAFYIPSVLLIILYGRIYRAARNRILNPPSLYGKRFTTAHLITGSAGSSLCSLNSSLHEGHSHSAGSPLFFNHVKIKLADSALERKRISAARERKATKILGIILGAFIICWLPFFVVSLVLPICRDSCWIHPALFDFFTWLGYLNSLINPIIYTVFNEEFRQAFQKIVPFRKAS
- METHOD SUMMARY: cAMP accumulation (LANCE Ultra TR-FRET) in HEK293T cells, WT 5-HT1D
- Format: cell-based
- PARTICULARS: HEK-293T, read-out: 5-HT1D EMAX (%), WT receptor; normalized to basal (0%) and 10 μM 5-CT (100%)
VALUE TYPE: Emax (%)
Form entry: value (%) — number only.

// assay human 5-HT1D receptor (Homo sapiens), entry CN(C)[C@H]1CCc2c(cccc2-c2cccs2)C1 [(S)-TAT] , Emax value = 60

// assay human 5-HT1D receptor (Homo sapiens), entry CN(C)[C@H]1CCc2c(cccc2-c2ccccc2Cl)C1 [(S)-CPT] , Emax value = 101

// assay human 5-HT1D receptor (Homo sapiens), entry CCCN(CCC)[C@H]1CCc2cccc(O)c2C1 [(S)-8-OH-DPAT, reference compound] , Emax value = 94

// assay human 5-HT1D receptor (Homo sapiens), entry CCCN(CCC)[C@H]1CCc2c(cccc2-c2ccccc2F)C1 [(S)-DFPT] , Emax value = 99

// assay human 5-HT1D receptor (Homo sapiens), entry CN(C)[C@H]1CCc2c(cccc2-c2cccc3ccccc23)C1 [(S)-NAP] , Emax value = 90

// assay human 5-HT1D receptor (Homo sapiens), entry `CN(C)[C@H]1CCc2c(cccc2-c2c(F)cccc2F)C1` , Emax value = 100

// assay human 5-HT1D receptor (Homo sapiens), entry O=C1CCc2ccc(OCCCCN3CCN(c4cccc(Cl)c4Cl)CC3)cc2N1 [Aripiprazole, aripiprazole, reference compound] , Emax value = 96

// assay human 5-HT1D receptor (Homo sapiens), entry CN(C)[C@H]1CCc2c(cccc2-c2ccccc2F)C1 [(S)-FPT] , Emax value = 103

// assay human 5-HT1D receptor (Homo sapiens), entry CN(C)[C@H]1CCc2c(cccc2-c2ccco2)C1 [(S)-FAT] , Emax value = 100

// assay human 5-HT1D receptor (Homo sapiens), entry CCCN(CCC)[C@H]1CCc2c(cccc2-c2ccccc2Cl)C1 [(S)-DCPT] , Emax value = 101

###

- EXPERIMENTAL SYSTEM: V3.33I 5-HT1A receptor (Homo sapiens, UniProt P08908, V117I)
- Sequence (P08908 1-422 V117I): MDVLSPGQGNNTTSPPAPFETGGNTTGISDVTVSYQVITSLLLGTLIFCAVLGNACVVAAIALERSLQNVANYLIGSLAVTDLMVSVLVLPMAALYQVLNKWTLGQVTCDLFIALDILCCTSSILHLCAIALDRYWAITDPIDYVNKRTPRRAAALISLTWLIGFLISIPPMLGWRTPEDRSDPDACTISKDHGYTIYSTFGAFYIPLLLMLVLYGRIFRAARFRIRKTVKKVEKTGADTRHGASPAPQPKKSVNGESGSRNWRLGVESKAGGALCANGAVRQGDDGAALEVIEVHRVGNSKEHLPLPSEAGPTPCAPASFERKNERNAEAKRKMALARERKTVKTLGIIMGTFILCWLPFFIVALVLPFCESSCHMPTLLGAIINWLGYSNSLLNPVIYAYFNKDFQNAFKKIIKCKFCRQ
- METHOD SUMMARY: Radioligand binding, V3.33I 5-HT1A
VALUE TYPE: pKi
// pKi is dimensionless: -log10 of concentration (M)

// assay V3.33I 5-HT1A receptor (Homo sapiens, UniProt P08908, V117I), entry CN(C)[C@H]1CCc2c(cccc2-c2cccc3ccccc23)C1 [(S)-NAP] , pKi value = 7.20

// assay V3.33I 5-HT1A receptor (Homo sapiens, UniProt P08908, V117I), entry Fc1ccccc1-c1cccc2c1CC[C@H](N1CCCC1)C2 [(S)-PFPT] , pKi value = 8.09
